Data origin, for the record: ChEMBL document CHEMBL5375988

- TEST_DETAILS: Half life in iv dosed human
- Type: ADME, organism-based
- MEASUREMENT_PARAMETERS: in vivo
READOUT_NAME: half-life (h)

{"COMPOUND": "O=[As][As+](=O)[O-] (stereo unspecified) [ARSENIC TRIOXIDE]", "READOUT_NAME": "half-life", "MEASUREMENT": 1}

###

- Test system: U-937
- TEST_DETAILS: Cytotoxicity against p53 null human U-937 cells harboring p53 V272M mutant incubated for 48 hrs by CCK-8 assay
- Type: functional, cell-based
- MEASUREMENT_PARAMETERS: U-937, 48 h
// values below are reported IC50
READOUT_NAME: IC50

{"COMPOUND": "O=[As][As+](=O)[O-] (configuration not stated) [ARSENIC TRIOXIDE]", "MEASUREMENT": "1.07 µM"}
{"COMPOUND": "CC(=O)OC[C@H]1O[C@@H](S[As]2SCCS2)[C@H](OC(C)=O)[C@@H](OC(C)=O)[C@@H]1OC(C)=O", "MEASUREMENT": "0.23 µM"}

###

- TEST_DETAILS: Plasma stability in human assessed as half life at […] measured upto 120 mins by LC-MS analysis
- Format: ADME, cell-free
Listed here: items and their measured half-life.

{"COMPOUND": "CCN(CC)CCOC(=O)c1ccc(N)cc1 [PROCAINE]", "half-life": "1.4 min"}
{"COMPOUND": "CC(=O)OC[C@H]1O[C@@H](S[As]2SCCS2)[C@H](OC(C)=O)[C@@H](OC(C)=O)[C@@H]1OC(C)=O", "half-life": "16.1 min"}

###

- TEST_DETAILS: Half life in po dosed human
- Format: ADME, organism-based
- MEASUREMENT_PARAMETERS: in vivo

{"MOLECULE": "O=[As][As+](=O)[O-] (stereo unspecified) [ARSENIC TRIOXIDE]", "half-life / min": 360}

###

- TEST_DETAILS: Half life in iv dosed rat
- Assay type: ADME, organism-based
- MEASUREMENT_PARAMETERS: in vivo

{"COMPOUND": "O=[As][As+](=O)[O-] (stereo unspecified) [ARSENIC TRIOXIDE]", "half-life": "~3.7 h"}
